target: Proto-oncogene tyrosine-protein kinase Src (Homo sapiens) (UniProt P12931); assay: Inhibition of cSrc
Sequence (P12931 2-536 limits assumed): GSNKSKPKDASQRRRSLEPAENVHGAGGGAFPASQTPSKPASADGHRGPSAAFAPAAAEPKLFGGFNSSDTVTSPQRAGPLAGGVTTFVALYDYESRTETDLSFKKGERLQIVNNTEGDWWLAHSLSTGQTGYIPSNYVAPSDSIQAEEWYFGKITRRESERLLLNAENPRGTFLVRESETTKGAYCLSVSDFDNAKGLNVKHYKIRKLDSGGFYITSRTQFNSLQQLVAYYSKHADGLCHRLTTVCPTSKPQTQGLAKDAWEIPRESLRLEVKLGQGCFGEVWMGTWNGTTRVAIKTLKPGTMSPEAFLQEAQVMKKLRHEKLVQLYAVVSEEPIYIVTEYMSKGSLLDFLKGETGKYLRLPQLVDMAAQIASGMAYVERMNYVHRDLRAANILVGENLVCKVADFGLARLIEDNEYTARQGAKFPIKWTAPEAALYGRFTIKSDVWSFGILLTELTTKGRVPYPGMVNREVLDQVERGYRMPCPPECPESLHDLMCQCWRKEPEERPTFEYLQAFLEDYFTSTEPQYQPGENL
endpoint: log(10^6/IC50)

# record.smiles, endpoint, reported.value
measured = [
    ("COc1ccc(NC(=O)Nc2nc3nc(NCCCN4CCN(C)CC4)ncc3cc2-c2c(Cl)cccc2Cl)cc1", "log(10^6/IC50)", 4.55),
    ("Cn1c(=O)c(-c2c(Cl)cccc2Cl)cc2cncnc21", "log(10^6/IC50)", 2),
    ("Cc1ncc2cc(-c3c(Cl)cccc3Cl)c(=O)n(C)c2n1", "log(10^6/IC50)", 1.3),
    ("CCOc1cc(OCC)cc(-c2cc3cnc(N)nc3nc2NC(=O)NC(C)(C)C)c1", "log(10^6/IC50)", 1.3),
    ("CN(C)c1ncc2cc(-c3c(Cl)cccc3Cl)c(=O)n(C)c2n1", "log(10^6/IC50)", 1.3),
    ("COc1cc(OC)cc(-c2cc3cnc(N)nc3n(C)c2=O)c1", "log(10^6/IC50)", 1.3),
    ("CC(C)(C)NC(=O)Nc1nc2nc(N)ncc2cc1-c1cc(C(F)(F)F)cc(C(F)(F)F)c1", "log(10^6/IC50)", 1.3),
    ("CN(C)c1cc(-c2cc3cnc(N)nc3nc2NC(=O)NC(C)(C)C)cc(N(C)C)c1", "log(10^6/IC50)", 1.3),
    ("Cn1c(=O)c(-c2c(Cl)cccc2Cl)cc2cnc(Nc3ccc(CC(=O)O)cc3)nc21", "log(10^6/IC50)", 5),
    ("CN1CCN(c2ccc(Nc3ncc4cc(-c5c(Cl)cccc5Cl)c(=O)n(C)c4n3)cc2)CC1", "log(10^6/IC50)", 5),
]
